Test: Absorption and fluorescence properties in water
Type: physicochemical
Details: excitation wavelength 380 nm
Experimental: To determine the wavelength of light, at which 1,1-dimethyl-2-[(E)-2-phenylethenyl]-1H-benzo[e]indole derivatives should be irradiated for the investigation of their photodynamic activity, the absorption and fluorescence properties thereof were measured in water. The excitation wavelength λex was set to 380 nm. […]
ENDPOINT: λem (nm)

molecule="CC1(C)C(/C=C/c2cccc([N+](=O)[O-])c2)=Nc2ccc3ccccc3c21 [Compound 3m]" endpoint=λem data_value=513
molecule="CC1(C)C(/C=C/c2cccc(C(F)(F)F)c2)=Nc2ccc3ccccc3c21 [Compound 3n]" endpoint=λem data_value=520
molecule="CC1(C)C(/C=C/c2cc([N+](=O)[O-])ccc2Cl)=Nc2ccc3ccccc3c21 [Compound 3c]" endpoint=λem data_value=541
molecule="CC1(C)C(/C=C/c2cccc3ccccc23)=Nc2ccc3ccccc3c21 [Compound 3o]" endpoint=λem data_value=558
